# Target system: microtubules
Attribute measured: MT depolymerization

In: Entry KinI-3 construct V195L546 (protein) VSGYNYGIPHSCIRQNTSEKQNPWTEMEKIRVCVRKRPLGMREVRRGEINIITVEDKETLLVHEKKEAVDLTQYILQHVFYFDEVFGEACTNQDVYMKTTHPLIQHIFNGGNATCFAYGQTGAGKTYTMIGTHENPGLYALAAKDIFRQLEVSQPRKHLFVWISFYEIYCGQLYDLLNRRKRLFAREDSKHMVQIVGLQELQVDSVELLLEVILKGSKERSTGATGVNADSSRSHAVIQIQIKDSAKRTFGRISFIDLAGSERAADARDSDRQTKMEGAEINQSLLALKECIRALDQEHTHTPFRQSKLTQVLKDSFIGNAKTCMIANISPSHVATEHTLNTLRYADRVKEL : reported MT depolymerization = ?
Out: no
